B1: LARP4 (parent)
chain: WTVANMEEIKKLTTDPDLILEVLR

Variants of: B1
assay-summary: protein stability index of a GFP-peptide fusion (GPS, HEK-293T) (PSI 1-6); higher = more stable;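 further: lentivirally expressed fusions sorted by FACS into six bins by GFP to DsRed ratio, PSI derived from sequencing read proportions per bin multiplied by bin number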
stated-conditions: c terminus: a fixed tail appended
measure: protein stability index
Output: the number by itself.

# annotated cases, reported protein stability index shown
E8V : 1.4
R24I : 2.14
I9Q : 2.14
D15E : 3.16
K10Q : 2.88

Per the records, this variant ( L18V ) has protein stability index equal to 2.99
